All figures here come from patent US8497271B2.

In this section, each of the compounds is paired with its reported EC50.
- target.entity: G protein-coupled receptor 88 (Homo sapiens, UniProt Q9GZN0)
- Sequence (Q9GZN0 whole entry, species assumed): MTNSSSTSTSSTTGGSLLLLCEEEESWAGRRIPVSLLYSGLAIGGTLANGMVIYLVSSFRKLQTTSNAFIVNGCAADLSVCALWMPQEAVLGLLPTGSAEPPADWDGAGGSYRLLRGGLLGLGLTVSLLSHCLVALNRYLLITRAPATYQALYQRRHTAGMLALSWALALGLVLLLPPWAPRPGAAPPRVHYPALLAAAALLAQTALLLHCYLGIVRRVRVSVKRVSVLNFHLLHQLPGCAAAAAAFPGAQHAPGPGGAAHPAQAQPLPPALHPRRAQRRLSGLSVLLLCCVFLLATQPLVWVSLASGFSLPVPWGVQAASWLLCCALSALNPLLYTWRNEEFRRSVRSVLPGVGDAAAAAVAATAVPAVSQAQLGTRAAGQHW
- protocol.summary: EC50 of select compounds as GPR88 modulators (Table 2; GTPγS assay and cAMP HTRF assay are both described, and the one used is not stated)
- Type: cell-based
- conditions.used: class symbol X; read-out: Range (EC50)

test.smiles	target.entity	EC50
CCC(CC)COc1ccc([C@H](CO)NC(=O)[C@H]2C[C@@H]2c2ccccc2)c(OC)c1	G protein-coupled receptor 88 (Homo sapiens, UniProt Q9GZN0)	0.062 to 0.13 µM
COc1cc(-c2ccc(C)cc2)ccc1[C@H](CO)NC(=O)[C@H]1C[C@@H]1c1cccs1	G protein-coupled receptor 88 (Homo sapiens, UniProt Q9GZN0)	0.062 to 0.13 µM
